- TARGET_DESC: SARS-CoV-2 3CL protease (Severe acute respiratory syndrome coronavirus 2, UniProt P0DTD1)
- Construct: measures the activity of full-length SARS-CoV-2 3CL protease
- METHOD_NOTES: SARS-CoV-2 Coronavirus 3C Protease FRET Assay
- Assay type: biochemical
- CONDITION_INFO: Examples 14-78 and 114 (second head of Table 2); Morrison equation fit, 15 nM enzyme, 25 μM peptide substrate; read-out: Geometric Mean Ki (nM) IC50

COMPOUND | UNIT_LABEL | RELATION | Ki
CC(C)[C@H](NS(C)(=O)=O)C(=O)N1CCC(C)(C)CC1C(=O)N[C@@H](C[C@@H]1CCNC1=O)C(=O)COc1ccc(F)cc1F (single isomer, unassigned) | nM | = | 21.8
COCC(=O)[C@H](C[C@@H]1CCNC1=O)NC(=O)C1C[C@H](C(C)(C)C)CCN1C(=O)[C@@H](NS(=O)(=O)C(F)(F)F)C(C)C (single isomer, unassigned) | nM | > | 10800
COC(=O)N[C@H](C(=O)N1C[C@H]2[C@@H]([C@H]1C(=O)N[C@@H](C[C@@H]1CCNC1=O)C(=O)COc1ccccc1F)C2(C)C)C(C)(C)C | nM | = | 4.78
CC(C)[C@H](NC(=O)C(F)(F)F)C(=O)N1C[C@H]2[C@@H]([C@H]1C(=O)NC(C[C@@H]1CCNC1=O)C(=O)COc1ccc(F)cc1F)C2(C)C (mixture of isomers) | nM | = | 2.76
CC(C)[C@H](NC(=O)C(F)(F)F)C(=O)N1C[C@H]2[C@@H]([C@H]1C(=O)N[C@@H](C[C@@H]1CCNC1=O)C(=O)COc1cccc(Cl)c1)C2(C)C | nM | = | 10.7
CC(C)(C)[C@H](NS(=O)(=O)C(F)(F)F)C(=O)N1C[C@H]2[C@@H]([C@H]1C(=O)N[C@@H](C[C@@H]1CCNC1=O)C(=O)COc1cccc(Cl)c1)C2(C)C | nM | = | 2.15
